Each entry below carries its reported Trep Concentration (μM) 120 min.
- MEASUREMENT_PROTOCOL: Stability in cryopreserved hepatocytes, human
API: value field is a number in µM; no unit string.

CCCCCC(CCC1C(O)CC2Cc3c(cccc3OCC(=O)O)CC21)OP(=O)(O)O (stereo not drawn) = 0.540
CCCCCC(CCC1C(O)CC2Cc3c(cccc3OCC(=O)O)CC21)OCC (stereo not drawn) = 0.0212
CCCCCC(CCC1C(O)CC2Cc3c(cccc3OCC(=O)O)CC21)OCCC (stereo not drawn) = 0.0061

Okay, now this molecule:
Task: Which Trep Concentration (μM) 120 min is listed for CCCCCC(CCC1C(O)CC2Cc3c(cccc3OCC(=O)O)CC21)OC(=O)COc1ccccc1 (stereo not drawn) ?
Result: 0.39
